Tested on: PC-3 prostate
Assay: NCI-60 one-dose screen, 48 h (100 = growth as untreated, 0 = no growth, -100 = all killed)
Settings: 10 µM unless noted
This is part of a sample that, as a whole, favours compounds with a hit. Of some 83,000 tested, about 20% had one in any assay.
The following ranges of growth define the classes used here: bottom end (below 40%), midrange (40% to below 80%), top end (80% or more)

* O=c1c2cc(F)ccc2sc2c(NCCCNCCO)nc3ccc(Cl)cc3c12 | midrange
* N#Cc1c(N)nc2c(c1N)C(c1ccc(F)cc1)c1ccc(N)cc1O2 (stereo not given) | top end
* Clc1ccc(COc2ccc(Nc3ncnc4onc(-c5ccccc5)c34)cc2)cc1 | midrange
* COc1ccc(N(C)c2nc(N)nc3sc4c(c23)CCCC4)cc1 | bottom end
* COc1c2ccoc2c(/C=C/C=O)c2oc(-c3ccccc3)cc(=O)c12 | bottom end
* CCOC(=O)c1cc2c(n1Cc1cccc(OC)c1)-c1oncc1CCC2 | bottom end
* COc1cc(/C=C2\CCC/C(=C\c3cc(CN4CCCCC4)c(O)c(OC)c3)C2=O)cc(CN2CCCCC2)c1O | top end
* O=C1NC(=O)C(=Cc2cn(Cc3cn(Cc4ccc(Cl)cc4Cl)nn3)c3ccccc23)C(=O)N1 | top end
* NNC(=O)CNC(=O)Nc1n[nH]c(=S)s1 | top end
* CC(C)(C)c1ccc(C2CC(=O)C3=C(C2)Nc2ccccc2N(C(=O)c2ccccc2Cl)C3c2ccc(F)cc2)cc1 (stereo not given) | bottom end
* CC(=S)NC(=O)C(=O)/C=C1/NC(=O)C(=O)S1 | top end
* CCOC(=O)c1cnc2c(C)cccc2c1Nc1ccc(C(C)=O)cc1 | bottom end
* CN(CCc1ccccc1)C(=S)N(C(=O)c1ccc([N+](=O)[O-])cc1)c1ccc(Cl)cc1 | midrange
* NCCNc1nc2ccccc2c2c(=O)c3cc(F)cc(Cl)c3sc12 | bottom end
* COC(=O)/C(CCC=C(C)C)=C1\[C@@H](OC(C)=O)C[C@@]2(C)[C@H]1C[C@@H](O)[C@H]1[C@@]3(C)CC[C@H](NCCCNCCCCNCCCN)[C@@H](C)[C@@H]3CC[C@@]12C | midrange
* O=C1/C(=C/c2ccc(O)cc2)COc2ccc(O)cc21 | top end
* S=C1NC2(c3ccccc3)CCC(=S)N2c2ccccc21 (stereo not given) | top end
* O=C(Nc1ccccc1O)c1ccc(Oc2cccc(C(=O)Nc3ccccc3O)c2)cc1 | bottom end
* COc1cc(C(C)n2cc(-c3ccccc3)nn2)ccc1OC1CCCC1 (stereo not given) | midrange

----------
Tested on: OVCAR-4 ovarian
Test: NCI-60 one-dose screen, 48 h (100 = growth as untreated, 0 = no growth, -100 = all killed)
Settings: 10 µM unless noted
About 83,000 compounds went through this panel and 20% of them were active in at least one assay; those are over-represented in the sample as a whole.
Property name: growth (%)

* Cn1cc([C@@H]2Nc3ccc4[nH]ncc4c3[C@H]3[C@H]4CCC(C4)[C@H]32)c(C(F)(F)F)n1 | 77.4
* COc1cc(C2C3=C(COC3=O)N(CCO)c3cc4c(cc32)OCCO4)cc(OC)c1O (stereo not given) | 40.3
* O=C(Nc1ccc(F)cc1F)c1cc(I)ccc1O | 20.1
* COc1ccccc1C1=C(Br)C(=O)c2nc(C)ccc2C1=O | 97.8
* O=C(O)CCCN1C(=O)C2C3CCC(C3)C2C1=O (stereo not given) | 109

----------
System: OVCAR-3 ovarian
Assay: NCI-60 one-dose screen, 48 h
Conditions: 10 µM unless noted
About 83,000 compounds went through this panel and 20% of them were active in at least one assay; those are over-represented in the sample as a whole. Active and inactive are the calls of the source. How the source made its calls: active means growth percent below 10; inactive means the rest.
Classes used: active, inactive

* O=C1NC(=S)NC(=O)C1=Cc1cn(Cc2cn(Cc3cccc4ccccc34)nn2)c2ccccc12 | inactive
* Nc1ccc(-c2nn3c(CCC(=O)c4nc5ncccc5[nH]4)nnc3s2)c(O)c1 | inactive
* C1CCN(c2nc(N3CCCCC3)nc(N3CCOCC3)n2)CC1 | inactive
* O=C(Nc1ccc(Br)cc1F)c1cc(Cl)ccc1O | active
* CC(C)Cn1c2c(c(=S)[nH]c1=O)CCC2 | inactive
* CCOC(=O)c1cnc2ccc(Cl)cc2c1NCCCN(C)C | inactive
* Cc1ccc2nc(NC(=O)CSC(=S)N3CCN(c4ccccc4)CC3)sc2c1 | inactive
* COc1ccc2sc(N(Cc3cccnc3)C(=O)c3ccc(C#N)cc3)nc2c1 | inactive
* CC(=O)O[C@@H]1/C=C/C(=O)N[C@@H](C)CCC/C=C/[C@@H]2CCC[C@H]21 | inactive
* CCCC(c1nnnn1C1CCCCC1)N1CCN(C(=O)c2ccco2)CC1 (stereo not given) | inactive
* CCOc1ccc2nc(C)cc(Nc3ccc(Br)cc3)c2c1 | inactive
* O=C(Nc1ccc(Br)cc1F)c1cc(F)ccc1O | active
* O=C(CSc1ncccc1C(=O)O)Nc1ccc(Oc2ccccc2)cc1 | inactive
* COC(=O)[C@H](NC(=O)C1(C)CCC[C@]2(C)[C@H]3C[C@H]4C(C(C)C)=C[C@]3(CC[C@@H]12)[C@@H]1C(=O)CCC(=O)[C@@H]14)C(C)C (stereo not given in full) | inactive
* COc1cc(OC)cc(N2C(=O)N(Cc3ccc(C(C)(C)C)cc3)c3ccccc3S2(=O)=O)c1 | inactive
* Fc1cccc(COc2ccc(Nc3ncnc4onc(-c5ccccc5)c34)cc2)c1 | active
* CCCCCCCCCCOC(=O)c1ccccc1C(=O)OCCCC | inactive
* NCCNc1nc2ccccc2c2c(=O)c3cc(F)cc(Cl)c3sc12 | active
* CCCCC(O)(c1ccc(Cl)cc1)C(CN1CCOCC1)c1ccc(Cl)cc1 (stereo not given) | active
* COc1cc(C2C(C#N)=C(N)OC3=C2C(=O)c2ccccc2C3=O)cc(OC)c1O (stereo not given) | active
* CSc1nc2c(c(=O)[nH]1)N=C1c3ccccc3C(=O)C1C(c1ccccc1)N2 (stereo not given) | active
* COc1ccc(OC)c(/C=C/C(=O)c2c(C)nc3ccccc3c2/C=C/c2ccccc2)c1 | inactive
* C1=CC2(C=C1)OC21CCC2(C=CC3(C2)OC3C2CCCCC2)CC1 (stereo not given) | inactive
* O=Cc1c(OCc2cnnn2CC(=O)Nc2ccc(Br)cc2)ccc2ccccc12 | inactive
* CN=c1ccc2nc3ccc(N)cc3sc-2c1 | inactive
* O=C(NC1CCN(Cc2ccccc2)CC1)c1cc(C(=O)NC2CCN(Cc3ccccc3)CC2)cc(C(=O)NC2CCN(Cc3ccccc3)CC2)c1 | inactive
* O=C(Nc1ccc(N2CCNCC2)cc1)c1[nH]ncc1Nc1cc(C2CC2)ncn1 | inactive
* O=C(c1nc2ccccc2[nH]1)C1C(c2cccc([N+](=O)[O-])c2)C2CC3CCCCC3N2[C@@]12C(=O)Nc1cc(Cl)ccc12 (stereo not given in full) | inactive
* CCCCCCCCCCCCCCn1cc(C2=C(c3coc4ccc(OC)cc34)C(=O)NC2=O)c2ccccc21 | inactive
* COc1cc(-c2c3c(cn2S(=O)(=O)c2ccccc2)-c2nc(N)sc2CC3)cc(OC)c1OC | active
* COc1ccccc1N1C(=N)S/C(=C\c2ccc(OCc3ccccc3F)cc2)C1=O | inactive
* COc1ccc(Cn2c(Br)c3c(c2Br)-c2nc(N)sc2CC3)cc1 | active
* COc1ccc(C2=Nn3c(NN)nnc3SC2)cc1 | inactive
* Cc1ccc2cc3c(N)c4c(C)ccc(C)c4nc3nc2c1 | inactive
* CC(=O)c1ccc(NC(=O)Nc2ccc(S(=O)(=O)Nc3ccc(Cl)nn3)cc2)cc1 | inactive
* COc1ccc2sc3c(NCCCN)nc4ccccc4c3c(=O)c2c1 | active
* CNCCNc1nc2ccccc2c2c(=O)c3cccc(C)c3sc12 | inactive
* COc1cc(/C(C#N)=C/c2nc3c(N4CCOCC4)nc(Cl)nc3n2C)cc(OC)c1OC | active
* COC(=O)[C@H]1CCCN1C(=O)[C@H]1CCCN1C(=O)[C@H](Cc1c[nH]c2ccccc12)NC(=S)Nc1cc(C(F)(F)F)cc(C(F)(F)F)c1 | inactive
* COc1cc(C(=O)O/N=C(\N)Cc2cccc3ccccc23)cc(OC)c1OC | active

----------
# growth listing for each entry below
Tested on: SNB-19 CNS
Experiment: NCI-60 one-dose screen, 48 h (100 = growth as untreated, 0 = no growth, -100 = all killed)
Conditions: 10 µM unless noted
Compounds without any hit were thinned out: in the full panel of roughly 83,000, 20% have a hit.
Property name: growth (%)

- COC(=O)c1c2c(c(C)[n+]([O-])c1C)C(=O)C(NCc1ccc(Br)cc1)=CC2=O: 19
- CCN1C(=O)N(c2ccccc2)C2NN=c3s/c(=C4\C(=O)N(C(C)C)c5ccccc54)c(=O)n3C21 (configuration not stated): 35.7
- CC1=C(CC(=O)c2cccc([N+](=O)[O-])c2)C(=O)c2ccccc2C1=O: 13
- COc1cc(C2C3=C(COC3=O)N(CCO)c3cc4c(cc32)CCC4)cc(OC)c1O (configuration not stated): 31.2
- CC(=O)c1ccc(NC(=O)Nc2ccc(S(=O)(=O)Nc3ccc(Cl)nn3)cc2)cc1: 95.8
- O=c1oc2ccc(Br)cc2c(=O)n1-c1ccc(F)cc1F: 12.5
- O=C1c2ccc3c4c(ccc(c24)C(=O)N1CCCCO)C(=O)N(CCCCO)C3=O: 91.4
